All figures here come from PubChem BioAssay AID1345083.

Assay: Cytotoxic Profiling in HEK 293 Cell Line of Diverse Libraries Using Quantitative High-Throughput Screening; also: nearly all actives have a fitted effect of over 60% in size
Conditions: HEK 293 viability, ATP luminescence (CellTiter-Glo), 48-72 h; series mostly up to 115 µM
The campaign covered roughly 94,000 compounds. About 6,200 (6.6%) were called active. Not shown: some 31% with an inconclusive outcome. Calls follow the shape of the dose curve; as a rule, active = well fitted inhibition curve with a large enough effect; inconclusive = small, poorly fitted or top-dose-only effect; inactive = flat fitted curve, though single readings scatter. The list comes from a sample in which actives are over-represented; it also holds close analogues and randomly drawn compounds.
Please state which outcome applies, choosing from active, inactive

See these solved cases before continuing.
# COMPOUND, CLASS NAME
data = [
    ("COC(=O)C[C@H]1CN(C(=O)OC(C)(C)C)CCN1", "inactive"),
    ("CN1C(=O)[C@H]2CN(Cc3ccccc3Cl)C[C@H]2C1=O", "inactive"),
    ("Cc1noc(C)c1S(=O)(=O)N1CCC(c2noc(-c3ccccn3)n2)C1 (configuration not stated)", "inactive"),
]

Name the outcome recorded for C[S+](=O)([O-])N1CC2(Cc3ccccc31)CN(C(=O)C1CC1)C2 in the assay. inactive

Name the outcome recorded for O=C(Nc1ccc(Cl)cc1)C1CCN(C(=O)c2ncn3c2COC(c2ccc(F)cc2)C3)CC1 (configuration not stated) in the assay. inactive

Name the outcome recorded for O=C(Nc1cccc(-n2cccn2)c1)C1CCCN(C2CCN(Cc3ccco3)CC2)C1 (configuration not stated) in the assay. inactive

Name the outcome recorded for Cc1ccc(CN2CCN(c3nc4ccccc4o3)CC2CCO)cc1 (configuration not stated) in the assay. active

Name the outcome recorded for O=C(N[C@H]1[C@H](O)[C@H](O)C[C@@H]1c1ccncc1)c1ccccn1 in the assay. inactive

Name the outcome recorded for NC(=O)[C@@H]1C[C@H](Oc2ccccc2)CN1C(=O)Cc1cccc(F)c1 in the assay. inactive

Name the outcome recorded for COc1ccc(N2CC(c3noc(-c4ccc(C(C)(C)C)cc4)n3)CC2=O)cc1 (configuration not stated) in the assay. active

Name the outcome recorded for CC(=O)N1CCC(Cc2ccc(C(=O)NC3CC3)cc2)CC1 in the assay. inactive

Name the outcome recorded for N[C@@H]1CCN(Cc2cccc(Oc3ccc(F)cc3)c2)C[C@H]1O in the assay. active

Name the outcome recorded for COCC1CN(C(=O)c2ccc(C#N)cc2)CC12CCOCC2 (configuration not stated) in the assay. inactive

----------
Experiment: Cytotoxic Profiling in HEK 293 Cell Line of Diverse Libraries Using Quantitative High-Throughput Screening; also: nearly all actives have a fitted effect of over 60% in size
Conditions: HEK 293 viability, ATP luminescence (CellTiter-Glo), 48-72 h; series mostly up to 115 µM
Screen size: about 94,000 compounds; about 6,200 (6.6%) were called active. Inconclusive results (about 31%) are left out. Calls come from the whole dose curve; as a rule, active = well fitted inhibition curve with a large enough effect; inconclusive = small, poorly fitted or top-dose-only effect; inactive = flat fitted curve, though single readings scatter. This excerpt belongs to a sample that is enriched for actives.
Please state which outcome applies, choosing from YES for active, NO for inactive

See these solved cases before continuing.
# MOLECULE, CLASS NAME
data = [
    ("Cc1nc(N2CCC(NC(=O)c3ccc4c(c3)OCO4)CC2)cc(C(F)(F)F)n1", "NO"),
    ("C=CCNC(=O)N1CC[C@@H](CC(=O)O)[C@@H](CC2=NCCc3ccc(C)cc32)C1", "NO"),
    ("O=C1NCCCCCN(Cc2cccnc2)[C@@H]2CN(C(=O)C3CCCCC3)CC[C@@H]12", "NO"),
]

Name the outcome recorded for C#CCN[C@@H]1C[C@@H]2c3[nH]c4ccccc4c3C[C@@H](C(=O)OC)N2[C@H](c2ccc(F)cc2)C1 in the assay. YES

Name the outcome recorded for N#Cc1ccc(CN2CCC[C@H]2c2nc(-c3ccc(F)cn3)no2)cc1 in the assay. NO

Name the outcome recorded for COCCOc1ncccc1-c1noc([C@@H]2CCCN2CC(C)(C)C)n1 in the assay. YES

Name the outcome recorded for CCOc1ccc(CC(=O)N2C[C@@H](N)C[C@H]2C(=O)NC(C)C)cc1 in the assay. NO

----------
Test: Cytotoxic Profiling in HEK 293 Cell Line of Diverse Libraries Using Quantitative High-Throughput Screening; also: nearly all actives have a fitted effect of over 60% in size
Details: HEK 293 viability, ATP luminescence (CellTiter-Glo), 48-72 h; series mostly up to 115 µM
Out of some 94,000 compounds screened, about 6,200 (6.6%) were called active. About 31% were inconclusive and are not listed. The call rests on the fitted dose curve; in most records, active means well fitted inhibition curve with a large enough effect; inconclusive means small, poorly fitted or top-dose-only effect; inactive means flat fitted curve, though single readings scatter. This is one part of a sample in which actives are shown more often than they occur.
Please state which outcome applies, choosing from 1 = active, -1 = inactive

# COMPOUND, CLASS NAME
data = [
    ("CNC(=O)N1CCC2(CC1)CC(Cc1cccc(F)c1)CCO2 (stereo unspecified)", -1),
    ("COc1ccc(OC)c(CNC(=O)CC2C(=O)NCCN2CC=C(C)C)c1 (stereo unspecified)", -1),
]

Name the outcome recorded for O=C(NCc1ccccc1)[C@@H]1Cc2nc[nH]c2CN1Cc1cccc(OC(F)(F)F)c1 in the assay. 1

Name the outcome recorded for CN(CCO)CC1(O)CCCN(Cc2ccccc2F)C1=O (stereo unspecified) in the assay. -1

----------
Test: Cytotoxic Profiling in HEK 293 Cell Line of Diverse Libraries Using Quantitative High-Throughput Screening; also: nearly all actives have a fitted effect of over 60% in size
Settings: HEK 293 viability, ATP luminescence (CellTiter-Glo), 48-72 h; series mostly up to 115 µM
The campaign covered roughly 94,000 compounds. About 6,200 (6.6%) were called active. Roughly 31% stayed inconclusive and do not appear here. Calls follow the shape of the dose curve; as a rule, active = well fitted inhibition curve with a large enough effect; inconclusive = small, poorly fitted or top-dose-only effect; inactive = flat fitted curve, though single readings scatter. The entries come from a sample that favours actives as a whole.
Please state which outcome applies, choosing from t (active), f (inactive)

See these solved cases before continuing.
# MOLECULE, CLASS NAME
records = [
    ("CN1CCCN(C(=O)c2cc(F)ccc2F)c2ccccc21", "f"),
    ("Cc1ccc(C2Cn3cnc(C(=O)N4CCC(C(=O)NCc5cccc(Cl)c5)CC4)c3CO2)cc1 (configuration not stated)", "f"),
    ("COCCN1CCC2(CCC1=O)CCN(C(=O)c1sc(C)nc1C)CC2", "f"),
    ("CNC(=O)c1cc(C2CC2)nc2onc(C3CCN(C(=O)Nc4ccccc4)C3)c12 (configuration not stated)", "f"),
    ("c1cnc2nc(C3CCCCN3)[nH]c2c1 (configuration not stated)", "f"),
]

Name the outcome recorded for CN(Cc1csc(-c2ccccc2)n1)c1cc(C2CC(O)C2)nc(N)n1 (configuration not stated) in the assay. t

Name the outcome recorded for CC(=O)N1CCC(C(=O)NCC2CCN(c3cc(-c4ccc(C)cc4)[nH]n3)CC2)CC1 in the assay. f

Name the outcome recorded for O=C(NCc1ccccc1F)C1(c2ccc(Cl)cc2)CCOCC1 in the assay. f

Name the outcome recorded for CN1CCN(C2CCOC3(CCN(S(=O)(=O)c4cn(C)cn4)CC3)C2)CC1 (configuration not stated) in the assay. f

Name the outcome recorded for CC(C)CC(=O)NCC1Cn2cccc2CN1Cc1ccccc1 (configuration not stated) in the assay. f

Name the outcome recorded for O=C(NCCc1cnccn1)c1coc(COc2cccc(C(F)(F)F)c2)n1 in the assay. f

Name the outcome recorded for COc1cccc(N2C(=O)NC(=NC3CCCC3)C23CCN(C(=O)c2ccc(C)cc2)C3)c1 (configuration not stated) in the assay. f

----------
Assay: Cytotoxic Profiling in HEK 293 Cell Line of Diverse Libraries Using Quantitative High-Throughput Screening; also: nearly all actives have a fitted effect of over 60% in size
Settings: HEK 293 viability, ATP luminescence (CellTiter-Glo), 48-72 h; series mostly up to 115 µM
Among all 94,000 compounds or so, about 6,200 (6.6%) were called active. Not shown: some 31% with an inconclusive outcome. Calls follow the shape of the dose curve; as a rule, active = well fitted inhibition curve with a large enough effect; inconclusive = small, poorly fitted or top-dose-only effect; inactive = flat fitted curve, though single readings scatter. What follows is part of a selection rich in actives, with near analogues and random picks from the rest.
Please state which outcome applies, choosing from YES (active), NO (inactive)

See these solved cases before continuing.
# MOLECULE, CLASS NAME
data = [
    ("COCCn1ccc2c(NC(=O)Cn3nc4c(cc3=O)CCCC4)cccc21", "NO"),
    ("COc1ccc(NC(=O)N2C[C@@H](F)C[C@H]2C(=O)N2CCCCC2)c(C)c1", "NO"),
    ("Cc1nc(C)c(C(=O)N2CCC(Oc3ccccc3-c3nc(-c4ccccc4)no3)C2)s1 (centres undefined)", "YES"),
]

Attention now turns to another entry.
Name the outcome recorded for Cc1noc(-c2ccccc2OC2CCN(C(=O)c3cnccc3C)C2)n1 (centres undefined) in the assay. NO

----------
Assay: Cytotoxic Profiling in HEK 293 Cell Line of Diverse Libraries Using Quantitative High-Throughput Screening; also: nearly all actives have a fitted effect of over 60% in size
Conditions: HEK 293 viability, ATP luminescence (CellTiter-Glo), 48-72 h; series mostly up to 115 µM
The campaign covered roughly 94,000 compounds. About 6,200 (6.6%) were called active. About 31% were inconclusive and are not listed. Calls come from the whole dose curve; as a rule, active = well fitted inhibition curve with a large enough effect; inconclusive = small, poorly fitted or top-dose-only effect; inactive = flat fitted curve, though single readings scatter. Many of the other results were omitted from the sample, so actives are more common in it than they were.
Please state which outcome applies, choosing from T = active, F = inactive

See these solved cases before continuing.
# COMPOUND, CLASS NAME
measured = [
    ("COc1cccc(NC(=O)c2c(OC)cc(=O)n3c2CCCC3)c1", "F"),
    ("COCC1(CNS(=O)(=O)c2ccc(F)cc2)C[C@@H](O)[C@@H](O)C1 (stereo partly specified)", "F"),
    ("COc1ccc(CN2CCCC(c3[nH]ccc3C(N)=O)C2)cc1Cn1ccnc1 (stereo unspecified)", "F"),
    ("COc1ccc(OC)c(NC(=O)C2CCN(c3cc(C(F)(F)F)ncn3)CC2)c1", "F"),
    ("O=C(C1CCOCC1)N1CCOC[C@H](Oc2ccccc2)C1", "F"),
]

Name the outcome recorded for COc1ncc(CN2CCc3ncc(C(=O)Nc4ccccc4)n3CC2)cn1 in the assay. F

Name the outcome recorded for CS(=O)(=O)N1CCCN(C(=O)CN2CCCCCC2)CCNC(=O)CC1c1ccccc1 (stereo unspecified) in the assay. F

Name the outcome recorded for CC1=C[C@@H](CC#N)[C@H](C(C)C)C[C@H]1CC(=O)N1CCN(C)CC1 in the assay. F

Name the outcome recorded for Cc1nn(CCO)cc1-c1c(-c2ccccc2)ncn1CC(=O)O in the assay. F

Name the outcome recorded for Cc1cnc(C(=O)N2CC[C@H](CO)[C@H](N(C)C)C2)cn1 in the assay. F

Name the outcome recorded for CNC(=O)N1CCCC1c1nc(C2CN(C(=O)c3nccn3C)C2)no1 (stereo unspecified) in the assay. F

Name the outcome recorded for CC(C)(C)c1cc(CC2(NCc3ccc(C#N)cc3)COC2)no1 in the assay. F

Name the outcome recorded for COc1ccccc1C(=O)N1CCC2(CCC(=O)N(Cc3ccccc3)CC2)CC1 in the assay. F

Name the outcome recorded for CC1=C[C@@H](CN2CCN(CCO)CC2)[C@H](C(C)C)C[C@H]1Cc1nnc(-c2ccc(C)cc2)o1 in the assay. T

Name the outcome recorded for O=C(C[C@@H]1CCNC[C@@H]1Cc1cc(-c2ccc(F)cc2)on1)NCCN1CCOCC1 in the assay. F

Name the outcome recorded for Cc1nn(-c2ccccc2)c(C)c1CN1CCCC12Cc1ccccc1CNC2=O (stereo unspecified) in the assay. F

Name the outcome recorded for COC(=O)N1CCN2C[C@@H](C(N)=O)[C@H](c3ccccc3)[C@H]2C1 in the assay. F

Name the outcome recorded for O=C(NC1CC1)c1ccc(CC2CCN(C(=O)C3CCOC3)CC2)cc1 (stereo unspecified) in the assay. F

Name the outcome recorded for COc1ccccc1C(=O)N1CCC2(CC1)CC(=O)c1ccccc1O2 in the assay. T

Name the outcome recorded for O=C1CC(c2ccccc2)N(C(=O)C2CC2)CCCN(C(=O)Cc2cccc(F)c2)CCN1 (stereo unspecified) in the assay. F

Name the outcome recorded for O=C1NCc2ccccc2CC12CCCCN2Cc1cccc(F)c1F (stereo unspecified) in the assay. T

Name the outcome recorded for COc1ccc(-c2cc(C[C@H]3CNCC[C@H]3CC(=O)NCCN(C)C)no2)cc1 in the assay. F
